# assay.name: Lipophilicity, log D of compound at pH 7.4
# Format: physicochemical
# assay.context: buffer
Values of logD greater than or equal to 2 map to Fulfilled; values below map to Not fulfilled.

Exam item: Record C[C@@H]1C(=O)N(C)CCN1CCOc1ccc(C2CCN(c3ccc4nnc(Cl)n4n3)CC2)cc1 ; criterion: logD no lower than 2. Met?
Marked response: Fulfilled

Exam item: Would you mind doing COc1nnc2ccc(N3CCC(c4ccc(CCN5CCN(C)C(=O)[C@H]5C)cc4)CC3)nn12 as well?
Marked response: Fulfilled

Exam item: Would you mind doing CN1CCN(CCOc2ccc(C3CCN(c4ccc5nnc(C(F)(F)F)n5n4)CC3)cc2)CC1=O as well?
Marked response: Fulfilled

Exam item: Would you mind doing COc1nnc2ccc(N3CCC(c4ccc(N5CC(N6CCN(C)C(=O)[C@H]6C)C5)cc4)CC3)nn12 as well?
Marked response: Not fulfilled

Exam item: Would you mind doing Cc1nnc2ccc(N3CCC(c4ccc(OCCN5CCN(C)C(=O)[C@H]5C)cc4)CC3)nn12 as well?
Marked response: Fulfilled

Exam item: Would you mind doing CSc1nnc2ccc(N3CCC(c4ccc(OCCN5CCN(C)C(=O)[C@H]5C)cc4)CC3)nn12 as well?
Marked response: Fulfilled

Exam item: Would you mind doing C[C@@H]1C(=O)N(C)CCN1CCOc1ccc(C2CCN(c3ccc4nncn4n3)CC2)cc1 as well?
Marked response: Not fulfilled

Exam item: Would you mind doing COc1nnc2ccc(N3CCC(c4ccc(OCCN5CCN(C)C(=O)[C@H]5C)cc4)CC3)nn12 as well?
Marked response: Fulfilled

Exam item: Would you mind doing COc1nnc2ccc(N3CCC(c4ccc(OCCN5CCN(C)C(=O)[C@@H]5C)cc4)CC3)nn12 as well?
Marked response: Fulfilled

Exam item: Would you mind doing COc1nnc2ccc(N3CCC(c4ccc(OCCCN5CCN(C)C(=O)[C@H]5C)cc4)CC3)nn12 as well?
Marked response: Fulfilled

Exam item: Would you mind doing COc1nnc2ccc(N3CCC(c4ccc(OCCN5[C@H](C)CN(C(C)=O)C[C@@H]5C)cc4)CC3)nn12 as well?
Marked response: Fulfilled

Exam item: Would you mind doing COc1nnc2ccc(N3CCC(c4ccc(OCCCCN5CCN(C)C(=O)[C@H]5C)cc4)CC3)nn12 as well?
Marked response: Fulfilled

###

# Bromodomain-containing protein 4 (Homo sapiens, UniProt O60885, N140A): Ki values follow
Express the result in nM but write the number alone.

Exam item: Look up Ki: COc1nnc2ccc(N3CCC(c4ccc(CCN5CCN(C)C(=O)[C@H]5C)cc4)CC3)nn12
Marked response: 126

Exam item: Would you mind doing COc1nnc2ccc(N3CCC(c4ccc(N5CC(N6CCN(C)C(=O)[C@H]6C)C5)cc4)CC3)nn12 as well?
Marked response: 398

Exam item: Would you mind doing CN1CCN(CCOc2ccc(C3CCN(c4ccc5nnc(C(F)(F)F)n5n4)CC3)cc2)CC1=O as well?
Marked response: 1000

###

# system: Bromodomain-containing protein 4 (Homo sapiens, UniProt O60885)
# assay.name: Displacement of Alexa647-labeled JQ1 derivative from wild type BRD4 tandem domain (44 to 460 residues) (unknown origin) incubated for 1 hr by fluorescence polarization assay
readout.label: pKi
# pKi is unitless: minus log10 of the molar concentration; print number only

Exam item: Please tell me: pKi of CSc1nnc2ccc(N3CCC(c4ccc(OCCN5CCN(C)C(=O)[C@H]5C)cc4)CC3)nn12 , system Bromodomain-containing protein 4 (Homo sapiens, UniProt O60885)?
Marked response: 7.90

Exam item: Would you mind doing C[C@@H]1C(=O)N(C)CCN1CCOc1ccc(C2CCN(c3ccc4nnc(N(C)C)n4n3)CC2)cc1 as well?
Marked response: 7.90

Exam item: Would you mind doing COc1nnc2ccc(N3CCC(c4ccc(OCCN5[C@H](C)CN(C(C)=O)C[C@@H]5C)cc4)CC3)nn12 as well?
Marked response: 8.80

Exam item: Would you mind doing COc1nnc2ccc(N3CCC(c4ccc(OCCN5CCN(C)C(=O)[C@H]5C)cc4)CC3)nn12 [AZD-5153] as well?
Marked response: 8.30

Exam item: Would you mind doing COc1nnc2ccc(N3CCC(c4ccc(N5CCC(N6CCN(C)C(=O)[C@H]6C)CC5)cc4)CC3)nn12 as well?
Marked response: 7.30

###

Please provide measured solubility thermodynamic for the entries that follow.
# assay.name: Thermodynamic solubility of compound in pH 7.4 solution
# Type: physicochemical
# assay.context: buffer, read-out: Therm_solubility

Exam item: Look up solubility thermodynamic: COc1nnc2ccc(N3CCC(c4ccc(CCN5CCN(C)C(=O)[C@H]5C)cc4)CC3)nn12
Marked response: 280 to 570 µM

Exam item: Would you mind doing COc1nnc2ccc(N3CCC(c4ccc(OCCCN5CCN(C)C(=O)[C@H]5C)cc4)CC3)nn12 as well?
Marked response: > 1000 µM

Exam item: Would you mind doing COc1nnc2ccc(N3CCC(c4ccc(OCCN5CCN(C)C(=O)[C@H]5C)cc4)CC3)nn12 as well?
Marked response: 1600 to 1650 µM

Exam item: Would you mind doing COc1nnc2ccc(N3CCC(c4ccc(N5CC(CN6CCN(C)C(=O)[C@H]6C)C5)cc4)CC3)nn12 as well?
Marked response: 460 to 1000 µM
